Test system: L02
methodDescription: Cytotoxicity against human L02 cells assessed as reduction in cell viability incubated for 72 hrs by MTT assay
Assay type: cell-based
reportedConditions: L02, 72 h
metricName: IC50 (µM)
Give bare numbers, in µM.

compound="Cl.Nc1ccn([C@@H]2O[C@H](CO)[C@@H](O)C2(F)F)c(=O)n1 [GEMCITABINE HYDROCHLORIDE]" metricname=IC50 endpointvalue=11.9

Here's the next entry for you.
Quote IC50 with test system L02 for `Nc1ccn([C@@H]2O[C@H](COC(=O)CCC(=O)OCc3ccc(-c4nn(Cc5ccccc5)c5ccccc45)o3)[C@@H](O)C2(F)F)c(=O)n1`
4.43

====

Test system: A2780
methodDescription: Cytotoxicity against human A2780 cells assessed as reduction in cell viability incubated for 72 hrs in hypoxic condition by MTT assay
Format: functional, cell-based
reportedConditions: A2780, 72 h
Field: IC50. Provide a value for each of the molecules that follow.
Give bare numbers, in nM.

For the 3 molecules below, give their IC50 values.
1. Cl.Nc1ccn([C@@H]2O[C@H](CO)[C@@H](O)C2(F)F)c(=O)n1 [GEMCITABINE HYDROCHLORIDE]
2. OCc1ccc(-c2nn(Cc3ccccc3)c3ccccc23)o1
3. Nc1ccn([C@@H]2O[C@H](COC(=O)CCC(=O)OCc3ccc(-c4nn(Cc5ccccc5)c5ccccc45)o3)[C@@H](O)C2(F)F)c(=O)n1

1. 1380
2. 20400
3. 30
